Numbers sourced from the supplement of paper PMC9170038.

What apparent KD of MS2 coat protein was measured for each of the following?
Tested on: MS2 coat protein
Experiment: apparent KD of MS2 coat protein; designed switch direction (-1 OFF switch, 1 ON switch): 1; higher = weaker reporter binding
Details: Eterna round: R95; input ligand: microRNA oligo, concentration not stated
Report the value in µM with no unit label.

Query block: Return apparent KD of MS2 coat protein measured with MS2 coat protein given this sequence: UUUAAACAUGAGGAUCACCCAUGUUUUUUUAUGGGAGGAUAUCUAAGUUAAUUAUAUUAAGGAGAAGGCCUAUUUU [× ×•×ª×• ×ž×“×™× ×” × ×—×ª-04] (puzzle: Same State 1)
Result block: 0.124

Query block: Return apparent KD of MS2 coat protein measured with MS2 coat protein given this sequence: AUUAAACAUGAGGAUCACCCAUGUCAACAAAGUCGAGGAUAUGGGCAAAUAAAAUAAGAACCAGAAGGCGAUUAAU [salish99_ss1_r3_078] (puzzle: Same State 1)
Result block: 0.109

Query block: Return apparent KD of MS2 coat protein measured with MS2 coat protein given this sequence: UCUUGGUUUUUGCUCGUUUUUUGUGUUGAACAUGAGGAUCACCCAUGUAUUGUACGGUCCAAUUUGAUAAUGGUCCG [JMF 27] (puzzle: Sensor for hsa-mir-208a)
Result block: 0.0139

Query block: Return apparent KD of MS2 coat protein measured with MS2 coat protein given this sequence: CUAUCUACAGGUGUCUUUGCUCGUUUUAUACAUGAGGAUCACCCAUGUUAUAGCCCGGUGCUUGCGCUGGGCUGAUU [JL ViennaUCT Tearor mod 7] (puzzle: Sensor for hsa-mir-208a)
Result block: 0.0155

Query block: Return apparent KD of MS2 coat protein measured with MS2 coat protein given this sequence: UAAGAACAUGAGGAUCACCCAUGUGGAAAGAACACAGGAUAUCAUAGUAGAACGAGACUAUGAGAAGGGUGACACG [Texeistean] (puzzle: Same State 1)
Result block: 0.214

Query block: Return apparent KD of MS2 coat protein measured with MS2 coat protein given this sequence: AAAAGUUGCGGGCAGGAUAUGUAUUAAAAUACAUGAGGAUCACCCAUGUGCGGGUAUAACACCCGACAGAAGGGCCAAACGCGAC [Mat - Same State 2 - Mod of UCT - D96] (puzzle: Same State 2)
Result block: 0.178

Query block: Return apparent KD of MS2 coat protein measured with MS2 coat protein given this sequence: CCGAUAAUAGGACAGGAUAUGACUGUCGUCACAUGAGGAUCACCCAUGUCCCGGCAAUGCCACCGUUAGAAGGGUCCUAUCUCGA [Maeded] (puzzle: Same State 2)
Result block: 0.0135

Query block: Return apparent KD of MS2 coat protein measured with MS2 coat protein given this sequence: AUAAAACAUGAGGAUCACCCAUGUCAACAAAGUCGAGGAUAUGGGCAAAUAUAAUAAGAACCAGAAGGCGAAUAAU [salish99_ss1_r3_023] (puzzle: Same State 1)
Result block: 0.204

Query block: Return apparent KD of MS2 coat protein measured with MS2 coat protein given this sequence: AUAAGUUUGAUGCUCGUCUCUCCGUACAGACAUGAGGAUCACCCAUGUAGUCGGGCAGUAGCCCGGCCAGUAUGGCC [Raatbeor] (puzzle: Sensor for hsa-mir-208a)
Result block: 0.0288

Query block: Return apparent KD of MS2 coat protein measured with MS2 coat protein given this sequence: CGUAGGUAGCUGGAGGAUAUUCGAGUGGUAACAUGAGGAUCACCCAUGUGGAGAGAGGAACAUGAGGAGAAGGCUAGCUGCCUGC [JL-ss2-3.19 JL mod] (puzzle: Same State 2)
Result block: 0.0217

* * *

System: MS2 coat protein
Assay: apparent KD of MS2 coat protein; designed switch direction (-1 OFF switch, 1 ON switch): -1; higher = weaker reporter binding
Settings: input ligand: none
What apparent KD of MS2 coat protein was measured for each of the following?
Report the value in nM with no unit label.

Query block: Look at this sequence and give its reported apparent KD of MS2 coat protein. CCGUGCACGCUGCGGUCCUACAUGAGGAUCACCCAUGUGGUCUGGUGGCGUGGGUCGCCGGACUUGGCUCGUCUUGA [salish99_S_TOV1_R5_021] (Eterna round: R97, puzzle: Sensor, turn-off variant 1)
Result block: 19.2

Query block: Look at this sequence and give its reported apparent KD of MS2 coat protein. UUAUGAGAGCAGGAUAUCUUAUAUUUUUUUUAAAGAGAAGGGCUCACAUGAGGAUCACCCAUGUGGUCCUAGAU [LRO-Excl6-21-mod of 4.86 by jal] (Eterna round: R97, puzzle: Exclusion 6)
Result block: 36.8

Query block: Look at this sequence and give its reported apparent KD of MS2 coat protein. CCGCAGCGGUAGGAUAUUAUGACGUCAUGGGCAUAAGAAGGACCGACAUGAGGAUCACCCAUGUUGGGUGCCCG [EX6 C.24] (Eterna round: R97, puzzle: Exclusion 6)
Result block: 21.7

Query block: Look at this sequence and give its reported apparent KD of MS2 coat protein. GGGAAGGGAGGAUAUGAGGAGGAGAACAUGAGGAUCACCCAUGUGAGGCCUCAGGAUCAAUCAGAAGGCCCGAUCC [AK-MS2ROC-r4-exclusion5-15.1] (Eterna round: R97, puzzle: Exclusion 5)
Result block: 26

Query block: Look at this sequence and give its reported apparent KD of MS2 coat protein. CAGUACUGAGGAUAUACAUGAGGAUCACCCAUGUGUUCCAGCUAGGAAACUAGCAUAUGUAGAAGGCAGUACUG [Eli x3 4.06] (Eterna round: R97, puzzle: Exclusion 3)
Result block: 298

* * *

Test system: MS2 coat protein
Test: apparent KD of MS2 coat protein; designed switch direction (-1 OFF switch, 1 ON switch): -1; higher = weaker reporter binding
Conditions: input ligand: none
What apparent KD of MS2 coat protein was measured for each of the following?
Give me the value, and tack the unit on after it.

Query block: Look at this sequence and give its reported apparent KD of MS2 coat protein. UAUUAGCAAGCGAGAUCCCACAUGAGGAUCACCCAUGUGCUCGUCUUAUAAAAGACUGUGACGAAAGUCACGGUCAC [Mat - Sensor, turn-off var - Eli Mod - D21] (Eterna round: R97, puzzle: Sensor, turn-off variant 1)
Result block: 15.7 nM

Query block: Look at this sequence and give its reported apparent KD of MS2 coat protein. UUUGGCAGAGGAUAUACAUGAGGAUCACCCAUGUAUAAGUGGGAUGCGUGCAAAUACUGUAGAAGGCUGCCUCU [Eternabot (L2) Solution 66] (Eterna round: R97, puzzle: Exclusion 3)
Result block: 73 nM

Query block: Look at this sequence and give its reported apparent KD of MS2 coat protein. CUACUGAAGCUUUGCUUUAGUCGACAUGAGGAUCACCCAUGUUAGGAUAUGGUAGGCUUUGCUUACUAGAAGGAUAGAGUGAUC [salish99_ExNG3_r04_603] (Eterna round: R96, puzzle: Exclusion NG 3)
Result block: 54.8 nM

Query block: Look at this sequence and give its reported apparent KD of MS2 coat protein. CGGGCCCAGGCAGGAUAUGUACAGCCACAAAACCCUCGUGUGAGGGACAUGAGGAUCACCCAUGUAUAGAAGGGCCAGCGCGUA [Xeditein] (Eterna round: R96, puzzle: Exclusion NG 2)
Result block: 22 nM

* * *

What apparent KD of MS2 coat protein was measured for each of the following?
System: MS2 coat protein
Experiment: apparent KD of MS2 coat protein; designed switch direction (-1 OFF switch, 1 ON switch): -1; higher = weaker reporter binding
Settings: Eterna round: R95; input ligand: none
Report the value in µM with no unit label.

Query block: Look at this sequence and give its reported apparent KD of MS2 coat protein. UAUUCUAGAUAGGAUAUACUUUUUUUUUUUUUCGUAGAAGGAUCUACAUGAGGAUCACCCAUGUUAACAGCAGU [JR_E6_Sub010] (puzzle: Exclusion 6)
Result block: 0.0404

Query block: Look at this sequence and give its reported apparent KD of MS2 coat protein. UUUAAUUUUUUUUUUUUACAAGCUUUUUGCUCGUCUUAUACAUGAGGAUCACCCAUGUGAGUGGAAGGUAAAUUAUC [JMF 69] (puzzle: Sensor v3, turn-off variant 2)
Result block: 0.0118

Query block: Look at this sequence and give its reported apparent KD of MS2 coat protein. GAUUAUGCGAGCUUUAGGGACAUGAGGAUCACCCAUGUUCGUCUUAUUGAUCUAGGUACACUGACAUACCUAAAUCU [JMF 66] (puzzle: Sensor v3, turn-off variant 1)
Result block: 0.0245

Query block: Look at this sequence and give its reported apparent KD of MS2 coat protein. AGCAGUAGUAUCCGAUCCUACAUGAGGAUCACCCAUGUAGCUAGACGUGCACGCGAUGCUCGUCAGACUACCAGAUG [salish99_TOv1_r3_035] (puzzle: Sensor v3, turn-off variant 1)
Result block: 0.195

Query block: Look at this sequence and give its reported apparent KD of MS2 coat protein. AGUAGUUGUUUCCGUUCUUACAUGAGGAUCACCCAUGUUUCUUGUCGUGCUCGCGUUGCUCGUCAGACUACCAGAUG [salish99_TOv1_r3_060] (puzzle: Sensor v3, turn-off variant 1)
Result block: 0.0758

Query block: Look at this sequence and give its reported apparent KD of MS2 coat protein. AGUACUAACUCGAUAGUGUUAGUACAAUAAGCUUGUGAAACAUGAGGAUCACCCAUGUCCUCAUAAGCUCGUCUUAU [salish99_TOv2_r3_1004] (puzzle: Sensor v3, turn-off variant 2)
Result block: 0.0154

Query block: Look at this sequence and give its reported apparent KD of MS2 coat protein. AAAAAACAAGGAUAUACGGAUGAAGAGAGUCUUAAUUUUUGACAUGAGGAUCACCCAUGUAGAAGGUGUUAAAA [JR_Exclusion2_Sub017] (puzzle: Exclusion 2)
Result block: 0.0505

Query block: Look at this sequence and give its reported apparent KD of MS2 coat protein. AAGAAACAUGAGGAUCACCCAUGUGAGGAUAUGAGAAAGAAAAGAAAAGAAAGAAGAUUCAGAAGGCACAAAGG [salish99-ex1_r3_035] (puzzle: Exclusion 1)
Result block: 0.05

Query block: Look at this sequence and give its reported apparent KD of MS2 coat protein. GAGUGGCAAGGAUAUACAGAGGAGAGGAAGGCAAGAGGUGGACAUGAGGAUCACCCAUGUAGAAGGUGCAGAGG [JR_Exclu2_Sub025] (puzzle: Exclusion 2)
Result block: 0.288
